tested on: CyPPO4; assay: Growth inhibition of transformed PPO-deficient E. coli BT3(ΔPPO) on LB agar medium; format: cell-based, Lyngbya sp. PCC 8106; details: 37° C., 16~20 hours
value-type: concentration at which growth inhibition was hardly observed (µM)
# value in µM; strip the unit string

Some solved cases for reference:
compound	scale-unit	observed-result
CCOc1cc(Oc2ccc(C(F)(F)F)cc2Cl)ccc1[N+](=O)[O-]	µM	400
C#CCN1C(=O)COc2cc(F)c(N3C(=O)C4=C(CCCC4)C3=O)cc21	µM	25
O=C(O)c1cc(Oc2ccc(C(F)(F)F)cc2Cl)ccc1[N+](=O)[O-]	µM	400
CS(=O)(=O)NC(=O)c1cc(Oc2ccc(C(F)(F)F)cc2Cl)ccc1[N+](=O)[O-]	µM	400
Cc1nn(-c2cc(NS(C)(=O)=O)c(Cl)cc2Cl)c(=O)n1C(F)F	µM	400

Give the measured concentration at which growth inhibition was hardly observed of COC(=O)CCNC(=O)C(C)Sc1cc(-n2c(=O)cc(C(F)(F)F)n(C)c2=O)c(F)cc1Cl (stereo not shown) .
25

Now the same for CC(C)N(C)S(=O)(=O)NC(=O)c1cc(-n2c(=O)cc(C(F)(F)F)n(C)c2=O)c(F)cc1Cl
25
